Each recorded value in this set is attributed to patent US20250051449A1.

Some binders, each annotated with its measured CD112 blocking max inhibition (%).
MEASURED_ON: T1, human CD112R expressed on Jurkat cells (human, UniProt Q6DKI7 1-326)
T1 construct: whole, on cells; Used for both Jurkat-CD112R OE cells and wild type Jurkat cells; which cells is said under assay; also called PVRIG; Jurkat-CD112R OE
T1 sequence (looked up): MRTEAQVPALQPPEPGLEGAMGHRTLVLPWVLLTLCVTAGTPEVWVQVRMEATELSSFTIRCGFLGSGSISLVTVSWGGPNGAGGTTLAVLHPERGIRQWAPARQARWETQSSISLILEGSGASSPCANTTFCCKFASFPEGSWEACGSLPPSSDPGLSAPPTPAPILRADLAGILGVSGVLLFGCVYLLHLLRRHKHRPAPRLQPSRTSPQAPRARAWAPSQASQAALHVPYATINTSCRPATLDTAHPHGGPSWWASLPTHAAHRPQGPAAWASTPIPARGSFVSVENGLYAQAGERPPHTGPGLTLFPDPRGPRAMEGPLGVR
PROTOCOL_DESCRIPTION: flow cytometry competition on Jurkat-CD112R OE cells; competitor biotinylated his-tagged human CD112
Give just the number in %; leave the unit off.

Solved cases (4 shown):
binder="Antibody 33 (antibody, V domains shown, Purified as IgG; compared with an IgG1 isotype control and detected with anti-human IgG Fc; also called antibody clone number 33; clone 33) VH: QVQLVQSGAEVKKPGSSVKVSCKASGGTFGNYAISWVRQAPGQGLEWMGGIIPIPGIANYAQKFQGRVTITADESTSTAYMELSSLRSEDTAVYYCARDTGRGYTRHFWFDPWGQGTLVTVSS VL: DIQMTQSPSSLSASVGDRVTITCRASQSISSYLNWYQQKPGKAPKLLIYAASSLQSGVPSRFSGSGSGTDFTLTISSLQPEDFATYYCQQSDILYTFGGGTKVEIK" numeric_value=97.4
binder="Antibody 2 (antibody, V domains shown, Purified as IgG; compared with an IgG1 isotype control and detected with anti-human IgG Fc; also called antibody clone number 2; clone 2) VH: EVQLVESGGGLVKPGGSLRLSCAASGFTFSEYTMNWVRQAPGKGLEWVSAIVGSGDSTYYADSVKGRFTISRDNSKNTLYLQMNSLRAEDTAVYYCAKDYSSGDWIDYGMDVWGQGTTVTVSS VL: DIQMTQSPSSLSASVGDRVTITCQASQDISNYLNWYQQKPGKAPKLLIYDASNLATGVPSRFSGSGSGTDFTFTISSLQPEDIATYYCQQFDLLPPTFGGGTKVEIK" numeric_value=94.1
binder="Antibody 46 (antibody, V domains shown, in the mouse tumor studies it was used as mouse IgG2a; also called antibody clone number 46; clone 46) VH: EVQLVESGGGLVQPGRSLRLSCTASGFTFGDYAMSWFRQAPGKGLEWVGFIGSKAYGGTTEYTASVKGRFTISRDGSKSIAYLQMNSLKTEDTAVYYCARGPRRYTYGMDVWGQGTTVTVSS VL: DIQMTQSPSSLSASVGDRVTITCRASQSISSYLNWYQQKPGKAPKLLIYAASSLQSGVPSRFSGSGSGTDFTLTISSLQPEDFATYYCQQSSTPLTFGGGTKVEIK" numeric_value=95.5
binder="Antibody 15 (antibody, V domains shown, Purified as IgG; compared with an IgG1 isotype control and detected with anti-human IgG Fc; also called antibody clone number 15; clone 15) VH: EVQLVESGGGLVQPGRSLRLSCTASGFTFGDVAMSWFRQAPGKGLEWVGYIGSKAYGGETEYTASVKGRFTISRDGSKSIAYLQMNSLKTEDTAVYYCARAGHSYGSIASNWFDPWGQGTLVTVSS VL: DIQMTQSPSSLSASVGDRVTITCRASQSISSYLNWYQQKPGKAPKLLIYGASSLQSGVPSRFSGSGSGTDFTLTISSLQPEDFATYYCQQGFYTPWTFGGGTKVEIK" numeric_value=97.9

# input for lookup
Can you look up the measured CD112 blocking max inhibition (%) of Antibody 58 (antibody, V domains shown, Purified as IgG; compared with an IgG1 isotype control and detected with anti-human IgG Fc; also called antibody clone number 58; clone 58) VH: EVQLVESGGGLVQPGRSLRLSCTASGFTFGDYAMSWFRQAPGKGLEWVGFIGSKFYGGETEYTASVKGRFTISRDGSKSIAYLQMNSLKTEDTAVYYCARGPRRYTYGMDVWGQGTTVTVSS VL: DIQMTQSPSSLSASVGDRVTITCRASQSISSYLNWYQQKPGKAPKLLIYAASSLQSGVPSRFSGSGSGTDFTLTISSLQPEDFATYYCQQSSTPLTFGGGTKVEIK for me?
96.3
